Experiment: High Content Assay for Compounds that inhibit the Assembly of the Perinucleolar Compartment:Cell Migration
Settings: PC3M cell invasion in 3D collagen microchannel, Hoechst imaging
Text: The perinucleolar compartment (PNC) is a non-membrane-bound nuclear subdomain that is associated with but structurally distinct from the nucleolus. The PNC is a heritable trait, in which the number of PNCs per cell in daughter cells often mimics that of their mother cells. The PNC is heterogeneous in shape, is stable through interphase, disassembles during mitosis, and reassembles in early G1. […]
Calls of active or inactive are those of the source.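 Rule for the calls: active = potency under 20 µM; inactive = the rest.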
A correct response names exactly one class from active, inactive

- item_smiles: "COc1ccc(-c2nc(NC(=O)c3n[nH]c(=O)c4ccccc34)sc2C)cc1"
  category_label: "active"
- item_smiles: "COC(=O)c1c(-c2ccccc2)csc1NC(=O)c1c(-c2ccccc2)noc1C"
  category_label: "inactive"
- item_smiles: "N=c1c2c(-c3ccccc3)c(-c3ccccc3)n(Cc3ccccc3)c2ncn1CCCO"
  category_label: "active"

Challenge: What did the test return for Cc1c(NC(=O)COC(=O)c2cc(-c3ccc(-c4ccccc4)cc3)nc3ccccc23)c(=O)n(-c2ccccc2)n1C ?
Response given: active

Challenge: Assay result, entry CCN(CC)C(=O)N1c2ccccc2C=Cc2ccccc21 — outcome?
Response given: active

Challenge: Please indicate how the test categorized CSc1nnc2c3ccccc3n(CCc3ccccc3)c2n1 .
Response given: active

Challenge: Look up the recorded call for CCOC(=O)Cn1c(-c2nonc2NC(=O)c2ccccc2F)nc2ccccc21 in this test.
Response given: inactive

Challenge: Assay result, entry O=C(Nc1cccnc1)c1cccs1 — outcome?
Response given: active
